- ASSAYED TARGET: PDE4D (Homo sapiens, UniProt Q08499)
- Construct: PDE4D: The catalytic domain of human PDE4B from S3 16-V692; His6 (N); thrombin cleavage site (N); made in house; host or cells: E. coli
- Sequence (Q08499 380-756): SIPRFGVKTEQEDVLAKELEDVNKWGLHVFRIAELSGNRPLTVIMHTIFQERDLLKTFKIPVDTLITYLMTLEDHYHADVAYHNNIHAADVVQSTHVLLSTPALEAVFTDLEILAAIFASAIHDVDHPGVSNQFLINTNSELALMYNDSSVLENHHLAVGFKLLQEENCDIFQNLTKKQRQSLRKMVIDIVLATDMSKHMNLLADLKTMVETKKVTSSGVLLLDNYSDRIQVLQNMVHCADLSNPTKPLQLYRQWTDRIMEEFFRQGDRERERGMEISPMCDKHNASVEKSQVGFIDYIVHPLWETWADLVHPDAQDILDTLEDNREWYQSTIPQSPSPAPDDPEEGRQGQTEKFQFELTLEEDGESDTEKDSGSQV
- ASSAY PROTOCOL: PDE4 IC50 determination by Scintillation Proximity Assay, PDE4D
- Type: biochemical
- ASSAY CONDITIONS: Table 1B, Formula I compounds; read-out: IC50 PDE4D
pIC50: −log10 of the molar value.
ATTRIBUTE MEASURED: pIC50

Example cases with answers are listed next.
compound="CCC(C)Nc1sc(C(=O)c2cc(-c3ccccc3)no2)c(N)c1C#N (stereo not shown) [Compound 1-222]" attribute_measured=pIC50 measured="> 5.00"
compound="N#Cc1c(NC2CCCC2)sc(C(=O)c2cc(-c3ccc(F)cc3)no2)c1N [Compound 1-221]" attribute_measured=pIC50 measured="< 5.00"
compound="N#Cc1cccc(Nc2sc(C(=O)c3ccc(-c4ccccn4)s3)c(N)c2C#N)c1 [Compound 1-69]" attribute_measured=pIC50 measured="> 5.00"

Now look at this one.
In: Test system PDE4D (Homo sapiens, UniProt Q08499); read-out pIC50; what value for COc1ccc(Nc2sc(C(=O)c3ccccc3)c(N)c2C#N)cc1 [Compound 1-32] ?
Out: > 5.00

###

- ASSAYED TARGET: PDE4B: The catalytic domain of human PDE4B from S152-S528 (Homo sapiens, UniProt Q07343)
- Construct: His6 (N); thrombin cleavage site (N); made in house; host or cells: E. coli
- Sequence (Q07343 with tags, fused parts or gaps): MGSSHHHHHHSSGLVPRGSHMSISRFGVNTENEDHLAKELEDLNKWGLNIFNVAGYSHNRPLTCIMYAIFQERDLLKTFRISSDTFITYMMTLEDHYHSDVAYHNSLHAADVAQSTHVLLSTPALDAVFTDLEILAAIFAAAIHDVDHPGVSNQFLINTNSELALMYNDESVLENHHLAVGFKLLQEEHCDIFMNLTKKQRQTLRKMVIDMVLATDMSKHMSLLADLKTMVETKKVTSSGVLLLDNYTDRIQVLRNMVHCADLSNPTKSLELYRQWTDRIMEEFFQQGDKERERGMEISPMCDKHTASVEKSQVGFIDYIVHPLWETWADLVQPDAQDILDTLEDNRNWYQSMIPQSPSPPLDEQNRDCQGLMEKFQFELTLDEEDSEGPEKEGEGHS
- ASSAY PROTOCOL: PDE4 IC50 determination by Scintillation Proximity Assay, PDE4B
- Type: biochemical
- ASSAY CONDITIONS: Table 3A, Formula III compounds; read-out: IC50 PDE4B
- Protocol: IC50s were determined by Scintillation Proximity Assay (SPA). The principle of the assay is based on the fact that cAMP, the PDE4 substrate, binds weakly to Yittrium Silicate SPA beads, whereas AMP, the product of PDE4 hydrolysis binds strongly. Thus, the extent of PDE4 hydrolysis of a sample of [^3H]cAMP can be measured because only the [^3H]AMP produced by PDE4 hydrolysis will bind to the SPA beads and produce a scintillation signal. PDE4 enzymes used for IC50 assays were: […]
The entries below are paired with their reported IC50.

compound="O=S(=O)(Nc1cccc2cccnc12)c1ccc(-c2ccon2)s1 [Compound 3-23]" attribute_measured=IC50 measured="> 10 µM"
compound="O=S(=O)(c1ccc(Br)s1)N(c1cccc2cccnc12)S(=O)(=O)c1ccc(Br)s1 [Compound 3-42]" attribute_measured=IC50 measured="> 10 µM"
compound="COC(=O)c1ccc(S(=O)(=O)Nc2c(C)ccc3cccnc23)o1 [Compound 3-43]" attribute_measured=IC50 measured="> 10 µM"
compound="COc1cc(NS(=O)(=O)c2c(Cl)cccc2Cl)c2ncccc2c1 [Compound 3-50]" attribute_measured=IC50 measured="> 10 µM"
compound="O=S(=O)(Nc1ccc(Br)c2cccnc12)c1ccc(-c2cnco2)s1 [Compound 3-35]" attribute_measured=IC50 measured="< 10 µM"

In: # query: IC50 of entry COc1cc(NS(=O)(=O)c2ccc(F)cc2)c2ncccc2c1 [Compound 3-55]
Out: > 10 µM

In: # query: IC50 of entry O=S(=O)(Nc1cccc2cccnc12)c1ccc(-c2ccccn2)s1 [Compound 3-30]
Out: > 10 µM

###

- ASSAYED TARGET: full-length human PDE4B2 isozyme (Homo sapiens)
- Construct: The full-length human PDE4B2 isozyme; His6 (N); TEV cleavage site (N); made in house; host or cells: baculovirus infected insect cells (unpurified lysate)
- Sequence (Q07343 1-564 isoform Q07343-2): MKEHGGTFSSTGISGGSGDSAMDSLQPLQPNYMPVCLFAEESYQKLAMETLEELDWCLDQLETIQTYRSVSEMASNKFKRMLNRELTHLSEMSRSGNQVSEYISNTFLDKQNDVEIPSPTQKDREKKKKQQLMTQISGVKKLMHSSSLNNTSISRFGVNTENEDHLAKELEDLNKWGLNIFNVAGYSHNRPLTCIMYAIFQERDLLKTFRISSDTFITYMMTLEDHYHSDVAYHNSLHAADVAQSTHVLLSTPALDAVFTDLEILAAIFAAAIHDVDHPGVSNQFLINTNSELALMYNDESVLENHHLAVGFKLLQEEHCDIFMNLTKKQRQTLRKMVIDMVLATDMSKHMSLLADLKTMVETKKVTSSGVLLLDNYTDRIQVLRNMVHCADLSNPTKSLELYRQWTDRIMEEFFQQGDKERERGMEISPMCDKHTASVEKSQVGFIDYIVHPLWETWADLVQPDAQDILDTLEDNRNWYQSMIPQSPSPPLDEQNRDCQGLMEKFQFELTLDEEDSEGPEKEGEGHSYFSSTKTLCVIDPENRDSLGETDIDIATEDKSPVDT
- ASSAY PROTOCOL: PDE4 IC50 determination by Scintillation Proximity Assay, PDE4B2
- Type: biochemical
- ASSAY CONDITIONS: Table 1B, Formula I compounds; read-out: IC50 PDE4B2
pIC50: −log10 of the molar value.
ATTRIBUTE MEASURED: pIC50

Example cases with answers are listed next.
molecule=N#Cc1c(NCC2CC2)sc(C(=O)c2cc(-c3ccccc3)no2)c1N assayed_target="full-length human PDE4B2 isozyme (Homo sapiens)" measured="< 5.00"
molecule=N#Cc1c(Nc2ccccc2)sc(C(=O)C2CC2)c1N assayed_target="full-length human PDE4B2 isozyme (Homo sapiens)" measured="> 5.00"
molecule="CCC(C)Nc1sc(C(=O)c2cc(-c3ccccc3)no2)c(N)c1C#N (centres unmarked)" assayed_target="full-length human PDE4B2 isozyme (Homo sapiens)" measured="> 5.00"
molecule=COc1ccc(C(=O)c2sc(NC3CCCC3)c(C#N)c2N)c(OC)c1 assayed_target="full-length human PDE4B2 isozyme (Homo sapiens)" measured="> 5.00"

Now look at this one.
In: # query: pIC50 of entry COc1cccc(C(=O)c2sc(Nc3ccccc3)c(C#N)c2N)c1
Out: > 5.00

###

- ASSAYED TARGET: PDE4D (Homo sapiens, UniProt Q08499)
- Construct: PDE4D: The catalytic domain of human PDE4B from S3 16-V692; His6 (N); thrombin cleavage site (N); made in house; host or cells: E. coli
- ASSAY PROTOCOL: PDE4 IC50 determination by Scintillation Proximity Assay, PDE4D
- Assay type: biochemical
- ASSAY CONDITIONS: Table 1B, Formula I compounds; read-out: IC50 PDE4D
The entries below are paired with their reported IC50.

Example cases with answers are listed next.
molecule="CCOC(=O)c1cc(C(=O)c2sc(NC(CC(C)C)C(=O)OC)c(C#N)c2N)on1 (stereo not drawn)" assayed_target="PDE4D (Homo sapiens, UniProt Q08499)" attribute_measured=IC50 measured="> 10 µM"
molecule=COc1ccc(Nc2sc(C(=O)c3ccccn3)c(N)c2C#N)cc1 assayed_target="PDE4D (Homo sapiens, UniProt Q08499)" attribute_measured=IC50 measured="> 10 µM"

In: # query: IC50 of entry COc1ccc(OC)c(C(=O)c2sc(Nc3ccccc3F)c(C#N)c2N)c1
Out: < 10 µM

Taken from patent US7585859B2.
